Provenance of the data: PubChem BioAssay (Tox21)

- Assayed Target: Retinoic acid receptor RXR-alpha (Homo sapiens)
- Test Method Notes: qHTS assay to identify small molecule agonists of the RXR signaling pathway (AID 1159527); also: nearly all actives have a fitted effect of over 35% in size
- Test Settings: HEK293T RXRa-UAS-bla, beta-lactamase ratio, 16 h; series mostly up to 76.8 µM
Inconclusive results are not listed. Activity calls are given as the source filed them. Calls follow the shape of the full dose curve.
Hello, when you answer, please use one of the following outcomes: t for active, f for inactive

Below are worked cases with known answers.
Compound: CCO[Si](CCC#N)(OCC)OCC
Assigned Class: f
//
Compound: OCc1cccc(Oc2ccccc2)c1
Assigned Class: f
//
Compound: COC(=O)c1cccnc1
Assigned Class: f
//
Compound: CC(CCO)CC(C)(C)C (stereo unspecified)
Assigned Class: f
//
Compound: Cc1ccc(C(C)C)c(O)c1
Assigned Class: f
//
Compound: CC1(C)CC(N)CC(C)(CN)C1 (stereo unspecified)
Assigned Class: f
//
Compound: CCOCC(=O)O
Assigned Class: f
//
Compound: O=S(=O)(O)c1ccc(N=Nc2c(O)ccc3cc(S(=O)(=O)O)ccc23)cc1
Assigned Class: f
//
Compound: CC(C)(Oc1ccc(CCNC(=O)c2ccc(Cl)cc2)cc1)C(=O)O
Assigned Class: f
//
Compound: C=CC(C)CCCC(C)(C)O (stereo unspecified)
Assigned Class: f

Exercise: Hi team, can someone confirm the assay call for O=C(OCC1CCC2OC2C1)C1CCC2OC2C1 (stereo unspecified) ?
Key: f

Exercise: Cool, now `Nc1nc(N)nc(-c2ccccc2)n1`
Key: f

Exercise: Cool, now `O=[N+]([O-])c1ccc2nc[nH]c2c1`
Key: f

Exercise: Cool, now `CC(=O)CCC=C(C)C`
Key: f

Exercise: Cool, now `O=c1[nH]cnc2[nH]ncc12`
Key: f

Exercise: Cool, now OC1C(O)C(O)C(O)C(O)C1O (stereo unspecified)
Key: f

Exercise: Cool, now `CNC(=S)N(C)C`
Key: f

Exercise: Cool, now `CN(C)c1ccc(O)c2c1C[C@H]1C[C@H]3[C@H](N(C)C)C(=O)C(C(N)=O)=C(O)[C@@]3(O)C(=O)C1=C2O`
Key: f

Exercise: Cool, now `O=C(O)c1cc2ccccc2cc1O`
Key: f

Exercise: Cool, now `CCOCCOCCOCCO`
Key: f
